setup_conditions: in DMSO, 303.15 K
measure: solubility (mole fraction)
Answers are plain numbers.

// query Output measured solubility (mole fraction) for this item: O=c1[nH]c2ccccc2n1CCCN1CCC(n2c(=O)[nH]c3cc(Cl)ccc32)CC1
// result 0.000698

---

setup_conditions: in ethylene glycol, 278.15 K
measure: solubility (mole fraction)
Numbers only.

// query Output measured solubility (mole fraction) for this item: O=c1[nH]c2ccccc2n1CCCN1CCC(n2c(=O)[nH]c3cc(Cl)ccc32)CC1
// result 1.11e-05

---

setup_conditions: in DMSO, 313.15 K
measure: solubility (mole fraction)
One number for each entry.

// query Output measured solubility (mole fraction) for this item: O=c1[nH]c2ccccc2n1CCCN1CCC(n2c(=O)[nH]c3cc(Cl)ccc32)CC1
// result 0.00099

---

setup_conditions: in ethanol, 293.15 K
measure: solubility (mole fraction)
One number for each entry.

// query Output measured solubility (mole fraction) for this item: O=c1[nH]c2ccccc2n1CCCN1CCC(n2c(=O)[nH]c3cc(Cl)ccc32)CC1
// result 1.86e-05

---

setup_conditions: in ethylene glycol, 303.15 K
measure: solubility (mole fraction)
One number for each entry.

// query Output measured solubility (mole fraction) for this item: O=c1[nH]c2ccccc2n1CCCN1CCC(n2c(=O)[nH]c3cc(Cl)ccc32)CC1
// result 3.47e-05

---

setup_conditions: in DMAc, 283.15 K
measure: solubility (mole fraction)

// query Output measured solubility (mole fraction) for this item: O=c1[nH]c2ccccc2n1CCCN1CCC(n2c(=O)[nH]c3cc(Cl)ccc32)CC1
// result 0.000971

---

setup_conditions: in n-propanol, 313.15 K
measure: solubility (mole fraction)
Give bare numbers.

// query Output measured solubility (mole fraction) for this item: O=c1[nH]c2ccccc2n1CCCN1CCC(n2c(=O)[nH]c3cc(Cl)ccc32)CC1
// result 6.43e-05

---

setup_conditions: in DMF, 318.15 K
measure: solubility (mole fraction)
Answers are plain numbers.

// query Output measured solubility (mole fraction) for this item: O=c1[nH]c2ccccc2n1CCCN1CCC(n2c(=O)[nH]c3cc(Cl)ccc32)CC1
// result 0.000575

---

setup_conditions: in acetonitrile, 298.15 K
measure: solubility (mole fraction)
One number for each entry.

// query Output measured solubility (mole fraction) for this item: O=c1[nH]c2ccccc2n1CCCN1CCC(n2c(=O)[nH]c3cc(Cl)ccc32)CC1
// result 4.6e-07

---

setup_conditions: in water, 303.15 K
measure: solubility (mole fraction)

// query Output measured solubility (mole fraction) for this item: O=c1[nH]c2ccccc2n1CCCN1CCC(n2c(=O)[nH]c3cc(Cl)ccc32)CC1
// result 2.76e-07

---

setup_conditions: in n-butanol, 278.15 K
measure: solubility (mole fraction)
Answers are plain numbers.

// query Output measured solubility (mole fraction) for this item: O=c1[nH]c2ccccc2n1CCCN1CCC(n2c(=O)[nH]c3cc(Cl)ccc32)CC1
// result 1.23e-05

---

setup_conditions: in methanol, 293.15 K
measure: solubility (mole fraction)

// query Output measured solubility (mole fraction) for this item: O=c1[nH]c2ccccc2n1CCCN1CCC(n2c(=O)[nH]c3cc(Cl)ccc32)CC1
// result 1.6e-05

---

setup_conditions: in acetonitrile, 278.15 K
measure: solubility (mole fraction)
Numbers only.

// query Output measured solubility (mole fraction) for this item: O=c1[nH]c2ccccc2n1CCCN1CCC(n2c(=O)[nH]c3cc(Cl)ccc32)CC1
// result 1.2e-07

---

setup_conditions: in DMSO, 288.15 K
measure: solubility (mole fraction)

// query Output measured solubility (mole fraction) for this item: O=c1[nH]c2ccccc2n1CCCN1CCC(n2c(=O)[nH]c3cc(Cl)ccc32)CC1
// result 0.000408

---

setup_conditions: in ethanol, 283.15 K
measure: solubility (mole fraction)
Numbers only.

// query Output measured solubility (mole fraction) for this item: O=c1[nH]c2ccccc2n1CCCN1CCC(n2c(=O)[nH]c3cc(Cl)ccc32)CC1
// result 1.09e-05

---

setup_conditions: in isopropanol, 303.15 K
measure: solubility (mole fraction)
Answers are plain numbers.

// query Output measured solubility (mole fraction) for this item: O=c1[nH]c2ccccc2n1CCCN1CCC(n2c(=O)[nH]c3cc(Cl)ccc32)CC1
// result 2.74e-05

---

setup_conditions: in acetonitrile, 313.15 K
measure: solubility (mole fraction)

// query Output measured solubility (mole fraction) for this item: O=c1[nH]c2ccccc2n1CCCN1CCC(n2c(=O)[nH]c3cc(Cl)ccc32)CC1
// result 1.07e-06

---

setup_conditions: in isobutanol, 288.15 K
measure: solubility (mole fraction)
Numbers only.

// query Output measured solubility (mole fraction) for this item: O=c1[nH]c2ccccc2n1CCCN1CCC(n2c(=O)[nH]c3cc(Cl)ccc32)CC1
// result 1.8e-05

---

setup_conditions: in ethylene glycol, 293.15 K
measure: solubility (mole fraction)
One number for each entry.

// query Output measured solubility (mole fraction) for this item: O=c1[nH]c2ccccc2n1CCCN1CCC(n2c(=O)[nH]c3cc(Cl)ccc32)CC1
// result 2.21e-05

---

setup_conditions: in ethylene glycol, 288.15 K
measure: solubility (mole fraction)
Give bare numbers.

// query Output measured solubility (mole fraction) for this item: O=c1[nH]c2ccccc2n1CCCN1CCC(n2c(=O)[nH]c3cc(Cl)ccc32)CC1
// result 1.84e-05

---

setup_conditions: in ethylene glycol, 283.15 K
measure: solubility (mole fraction)
Answers are plain numbers.

// query Output measured solubility (mole fraction) for this item: O=c1[nH]c2ccccc2n1CCCN1CCC(n2c(=O)[nH]c3cc(Cl)ccc32)CC1
// result 1.43e-05

---

setup_conditions: in n-butanol, 288.15 K
measure: solubility (mole fraction)
Give bare numbers.

// query Output measured solubility (mole fraction) for this item: O=c1[nH]c2ccccc2n1CCCN1CCC(n2c(=O)[nH]c3cc(Cl)ccc32)CC1
// result 2.19e-05

---

setup_conditions: in isobutanol, 298.15 K
measure: solubility (mole fraction)
Answers are plain numbers.

// query Output measured solubility (mole fraction) for this item: O=c1[nH]c2ccccc2n1CCCN1CCC(n2c(=O)[nH]c3cc(Cl)ccc32)CC1
// result 2.83e-05

---

setup_conditions: in n-butanol, 298.15 K
measure: solubility (mole fraction)

// query Output measured solubility (mole fraction) for this item: O=c1[nH]c2ccccc2n1CCCN1CCC(n2c(=O)[nH]c3cc(Cl)ccc32)CC1
// result 3.66e-05

---

setup_conditions: in ethanol, 288.15 K
measure: solubility (mole fraction)
Give bare numbers.

// query Output measured solubility (mole fraction) for this item: O=c1[nH]c2ccccc2n1CCCN1CCC(n2c(=O)[nH]c3cc(Cl)ccc32)CC1
// result 1.47e-05

---

setup_conditions: in n-propanol, 298.15 K
measure: solubility (mole fraction)
Answers are plain numbers.

// query Output measured solubility (mole fraction) for this item: O=c1[nH]c2ccccc2n1CCCN1CCC(n2c(=O)[nH]c3cc(Cl)ccc32)CC1
// result 3.25e-05

---

setup_conditions: in water, 313.15 K
measure: solubility (mole fraction)
Give bare numbers.

// query Output measured solubility (mole fraction) for this item: O=c1[nH]c2ccccc2n1CCCN1CCC(n2c(=O)[nH]c3cc(Cl)ccc32)CC1
// result 4.16e-07

---

setup_conditions: in DMAc, 278.15 K
measure: solubility (mole fraction)
Answers are plain numbers.

// query Output measured solubility (mole fraction) for this item: O=c1[nH]c2ccccc2n1CCCN1CCC(n2c(=O)[nH]c3cc(Cl)ccc32)CC1
// result 0.000805

---

setup_conditions: in DMAc, 303.15 K
measure: solubility (mole fraction)
Answers are plain numbers.

// query Output measured solubility (mole fraction) for this item: O=c1[nH]c2ccccc2n1CCCN1CCC(n2c(=O)[nH]c3cc(Cl)ccc32)CC1
// result 0.00182

---

setup_conditions: in ethylene glycol, 298.15 K
measure: solubility (mole fraction)
Answers are plain numbers.

// query Output measured solubility (mole fraction) for this item: O=c1[nH]c2ccccc2n1CCCN1CCC(n2c(=O)[nH]c3cc(Cl)ccc32)CC1
// result 2.93e-05

---

setup_conditions: in ethylene glycol, 313.15 K
measure: solubility (mole fraction)
One number for each entry.

// query Output measured solubility (mole fraction) for this item: O=c1[nH]c2ccccc2n1CCCN1CCC(n2c(=O)[nH]c3cc(Cl)ccc32)CC1
// result 5.56e-05

---

setup_conditions: in methanol, 288.15 K
measure: solubility (mole fraction)
Numbers only.

// query Output measured solubility (mole fraction) for this item: O=c1[nH]c2ccccc2n1CCCN1CCC(n2c(=O)[nH]c3cc(Cl)ccc32)CC1
// result 1.21e-05

---

setup_conditions: in DMAc, 288.15 K
measure: solubility (mole fraction)

// query Output measured solubility (mole fraction) for this item: O=c1[nH]c2ccccc2n1CCCN1CCC(n2c(=O)[nH]c3cc(Cl)ccc32)CC1
// result 0.00116

---

setup_conditions: in ethylene glycol, 308.15 K
measure: solubility (mole fraction)
Answers are plain numbers.

// query Output measured solubility (mole fraction) for this item: O=c1[nH]c2ccccc2n1CCCN1CCC(n2c(=O)[nH]c3cc(Cl)ccc32)CC1
// result 4.43e-05
